# Test system: SN12C renal
# assay_overview: NCI-60 one-dose screen, 48 h (100 = growth as untreated, 0 = no growth, -100 = all killed)
# applied_conditions: 10 µM unless noted
The panel holds about 83,000 compounds, 20% with a hit somewhere; the sample as a whole holds those more often.
Parameter growth: see the listing below.

smiles_notation	growth / %
Cn1ccnc1C(=O)/C=C/c1ccc(C(=O)Nc2ccccc2F)cc1	8.08
COc1cc(-c2ccc(-c3ccc(C(=N)N)s3)s2)cc(OC)c1OC	60
COc1ccc(Cn2cc(C(=O)N=Nc3c(O)[nH]c4ccc(Br)cc34)nn2)cc1	102
COC(=O)c1nc(-c2ccccc2)oc1S(=O)(=O)N1CCN(c2ccc(OC)cc2)CC1	85.4
c1ccc(-c2nc(N3CCNCC3)c3oc(-c4ccccc4)nc3n2)cc1	-82.1

* * *

# System: MCF7 breast
# assay_overview: NCI-60 one-dose screen, 48 h
# applied_conditions: 10 µM unless noted
Compounds without any hit were thinned out: in the full panel of roughly 83,000, 20% have a hit. Calls of active or inactive are those of the source. Rule for the calls: active = growth percent below 10; inactive = the rest.
Outcomes: active, inactive

molecule	assigned_class
CN1CC(c2ccccc2)C(C(=O)c2ccc(Br)cc2)C12C(=O)Nc1ccccc12 (configuration not stated)	inactive
CN1CCN(Cc2ccc(NC(=O)c3cncc(C#Cc4c(N)ncc5ccccc45)c3)cc2C(F)(F)F)CC1	active
CCN(CC)CCCNc1cc(OC)cc2cccnc12	inactive
Cc1nn(-c2ccccc2)c(Oc2ccccc2)c1/C=N/NC(=O)Cn1c(=O)sc2ccccc21	inactive
COc1cc(-c2ccc(-c3ccc(C(=N)N)s3)s2)cc(OC)c1OC	active
COc1ccc(Nc2nccc(Nc3ccc4[nH]ncc4c3)n2)cc1	inactive
COc1ccc(C2CC(=O)Oc3c(OC)c4c(c(OC)c32)OCO4)cc1 (configuration not stated)	inactive
C=C(C)[C@@H]1CC[C@]2(COC(=O)c3cccnc3)CC[C@]3(C)[C@H](CC[C@@H]4[C@@]5(C)CCCN(C(=O)c6cccnc6)C(C)(C)[C@@H]5CC[C@]43C)[C@@H]12	inactive
O=C(O)CCCN1C(=O)CSC1=S	inactive
COc1ccc(NC(=O)CSc2oc(-c3ccccc3)nc2S(=O)(=O)c2ccc(Cl)cc2)c(OC)c1	inactive
CCNc1nc(-c2ccc(Cl)c(OC)c2)c(-c2ccnc(NCCNS(=O)(=O)c3ccc(Cl)cc3)n2)s1	active
Cn1cc(-c2nc(-c3c[nH]c4ccncc34)cs2)c2cc(F)ccc21	active
CCNCCNc1c(C)c(-c2ccc(C(F)(F)F)cc2)c(C#N)c2nc3ccccc3n12	inactive
Cc1nc2cccc(NCc3ccc(C(=O)NO)cc3)c2c(=O)n1-c1ccccc1	inactive
CCCCCCCCCCCCCCCCCCOc1ccccc1CC(=O)OCC[N+]1(C)CCCCC1	inactive
O=C(NC1CCCCCC1)c1ccc2c(=O)n3c(nc2c1)CCCCC3	inactive
Cc1ccc(-c2nnc(SCc3nc(N)nc(Nc4ccccc4F)n3)n2-c2ccccc2)cc1	inactive
CN1CCN(c2ccc(Nc3ncc4[nH]c(=O)n(Cc5ccccc5N)c4n3)cc2)CC1	inactive
CCN1CCN(C(=O)[C@]23CC[C@@H](C)[C@H](C)[C@@H]2C2=CC[C@@H]4[C@@]5(C)C/C(=C/c6ccncc6)C(=O)C(C)(C)[C@@H]5CC[C@@]4(C)[C@]2(C)CC3)CC1	active
CC1(C)CC[C@]2(CO)CC[C@]3(C)C(=CC[C@@H]4[C@@]5(C)CCNCC(C)(C)[C@@H]5CC[C@]43C)[C@@H]2C1	inactive
CC(C)C(=O)Nc1ncc(C(=O)NCCN(Cc2ccccc2)C(=O)c2ccc(S(=O)(=O)Nc3ccccc3)cc2)s1	inactive
CCOC(=O)c1c(C)nc2c(c1N)C(=O)C(=O)N2CCc1ccc(OC)c(OC)c1	inactive
COC(=O)c1nc(-c2ccc(C)cc2)oc1N1CCOCC1	inactive
COc1cc2ncnc(Nc3ccc(S(=O)(=O)Nc4cc(C)on4)cc3)c2cc1OCCCN1CCOCC1	inactive
COc1c(O[C@@H]2OC(CO)[C@H](O)[C@H](O)C2O)cc2oc3cc(O)c(CC=C(C)C)c(O)c3c(=O)c2c1CC=C(C)C (some centres not stated)	inactive
Cc1c(CC(=O)Nc2ccccc2)nnn1-c1ccccc1	inactive
CO[C@H]1CC(c2ccc[nH]2)=N[C@]12O[C@@H](C)C[C@@H]1CCCCCCCc3ccc([nH]3)[C@H]12	inactive
CCCCCCCCOC(=O)c1c(C)[nH]c(/C=C2\N=C(c3ccc[nH]3)C=C2OC)c1C	active
C[C@@H]1N=C(c2ccc(Cl)cc2Cl)Nc2nc3ccccn3c2C1=O	inactive
COc1ccc(Nc2nc(Nc3cc(C)[nH]n3)c3cc(OC)c(OC)cc3n2)cc1	active
Cc1c(Cl)cccc1NC(=O)c1sc2nc3c(cc2c1N)CCCC3	inactive
COc1cc2c(c(OC)c1OC)CCC(c1cccc(C(=O)Nc3ccccc3Br)c1)O2 (configuration not stated)	inactive
CCOC(=O)C1=C(c2ccccc2)N=C2N(c3ccccc3)N=C(C(C)=O)N2C1c1ccc(Br)cc1 (configuration not stated)	inactive
Cc1ccc(Nc2oc(-c3ccccc3)nc2[P+](c2ccccc2)(c2ccccc2)c2ccccc2)cc1	active
CN(C)c1ccc(Cc2cc(-c3ccccc3)nn(C/C(=N/O)c3ccccc3)c2=O)cc1	inactive
Nc1ncc(-c2ccc3ncnc(N4CCc5cc(F)c(Cl)cc54)c3c2)cn1	inactive
CCOC(=O)CC1C(CNC(=O)NC)OC(n2cnc3c(NC(=O)Nc4ccccc4)ncnc32)C1O[Si](C)(C)C(C)(C)C (configuration not stated)	inactive
